These data points were gathered from PubChem BioAssay.

# z-score per record follows
Assay: cell viability in Huh7 cells, primary screen, cytotoxicity control for HCV replication inhibitor project, CellTiter-Glo luminescence, basal, 48 h (AID 1143);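 also: Huh7 hepatoma cells carrying a hepatitis C replication reporter with no stimulus; test concentration not given here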
Conditions: Huh7 HCV replicon, higher = more signal, called active from +8 up or from −8 down
Keep the answer to the number alone.

Lab note: measured z-score of O=C1N(CCS(=O)(=O)c2ccccc2)c2ccccc2[C@@H]2OC(c3ccc(OCCCO)cc3)=N[C@]12CCS(=O)(=O)c1ccccc1 was -1.35

More entries:
Lab note: measured z-score of C=C(COC)C(=O)CC[C@@H](OC(=O)c1cccnc1)c1cccc(OCCO)c1 was -0.864

====

# composite z-score per record follows
Target: Alpha-bungarotoxin (Bungarus multicinctus)
Experiment: alpha-bungarotoxin binders on microarray, profiling panel, artefact control for SMM control protein annotation, biochemical, small-molecule microarray, Alexa647 label, 635/667 nm fluorescence (AID 1117)
Details: alpha-BTX-A647 binding fluorescence, higher = more signal

Worked cases, answers included:
Lab note: measured composite z-score of C=C(CCCC)C(=O)CC[C@H](OC(=O)c1cccnc1)c1ccc(CO)o1 was 0.542

Lab note: measured composite z-score of C=CCC(OC(C)=O)[C@@H]1[C@@H](N(Cc2cccc3ccccc23)C(=O)c2ccc(-c3ccccc3)cc2)c2cc(OCCCO)ccc2N1C(=O)c1ccc2ccccc2n1 (some centres undefined) was -0.0098

Lab note: measured composite z-score of CCCCCCCCCCC(O)C1C=CC2C(=O)N(C)C(=O)C2N1N1CCCCC1 (centres undefined) was -1.09

Let us examine a further case.
Lab note: measured composite z-score of CCc1cccc(NC(=O)O[C@H]2[C@H](OC(=O)Nc3ccc4c(c3)OCO4)[C@H](OC(=O)Nc3ccc4c(c3)OCO4)[C@@H](OC)O[C@@H]2CO)c1 was 1.18
